Test system: HeLa Kyoto
Experiment: thermal stability score vs G1/S (z-score of summed log2 fold changes over temperatures); higher = more thermally stable than in G1/S
Conditions: cell cycle stage: mitosis
Measured thermal stability score of individual entries
# output: bare number, no unit

Examples with their reported thermal stability score follow.
The sequence MDGLRQRVEHFLEQRNLVTEVLGALEAKTGVEKRYLAAGAVTLLSLYLLFGYGASLLCNLIGFVYPAYASIKAIESPSKDDDTVWLTYWVVYALFGLAEFFSDLLLSWFPFYYVGKCAFLLFCMAPRPWNGALMLYQRVVRPLFLRHHGAVDRIMNDLSGRALDAAAGITRNVLQVLARSRAGITPVAVAGPSTPLEADLKPSQTPQPKDK [REEP6] , tested on HeLa Kyoto, showed thermal stability score of -0.943

The sequence MSLNPPIFLKRSEENSSKFVETKQSQTTSIASEDPLQNLCLASQEVLQKAQQSGRSKCLKCGGSRMFYCYTCYVPVENVPIEQIPLVKLPLKIDIIKHPNETDGKSTAIHAKLLAPEFVNIYTYPCIPEYEEKDHEVALIFPGPQSISIKDISFHLQKRIQNNVRGKNDDPDKPSFKRKRTEEQEFCDLNDSKCKGTTLKKIIFIDSTWNQTNKIFTDERLQGLLQVELKTRKTCFWRHQKGKPDTFLSTIEAIYYFLVDYHTDILKEKYRGQYDNLLFFYSFMYQLIKNAKCSGDKETGKLTH [DTWD1] , tested on HeLa Kyoto, showed thermal stability score of 1.96

Pending sequence:
The sequence MDKVCAVFGGSRGIGRAVAQLMARKGYRLAVIARNLEGAKAAAGDLGGDHLAFSCDVAKEHDVQNTFEELEKHLGRVNFLVNAAGINRDGLLVRTKTEDMVSQLHTNLLGSMLTCKAAMRTMIQQQGGSIVNVGSIVGLKGNSGQSVYSASKGGLVGFSRALAKEVARKKIRVNVVAPGFVHTDMTKDLKEEHLKKNIPLGRFGETIEVAHAVVFLLESPYITGHVLVVDGGLQLIL [CBR4] , tested on HeLa Kyoto, showed thermal stability score of -0.318

====

System: HeLa Kyoto
Test: solubility change mitosis vs G1/S (difference of NP-40 vs SDS log2 ratios) (log2 ratio difference); higher = more soluble in mitosis
Readout kind: solubility change mitosis (log2)
# output: bare number, no unit

Examples with their reported solubility change mitosis (log2) follow.
Record MSDCYTELEKAVIVLVENFYKYVSKYSLVKNKISKSSFREMLQKELNHMLSDTGNRKAADKLIQNLDANHDGRISFDEYWTLIGGITGPIAKLIHEQEQQSSS [S100A16] . Reported solubility change mitosis (log2): 0.301

Record MWRSCLRLRDGGRRLLNRPAGGPSASMSPGPTIPSPARAYAPPTERKRFYQNVSITQGEGGFEINLDHRKLKTPQAKLFTVPSEALAIAVATEWDSQQDTIKYYTMHLTTLCNTSLDNPTQRNKDQLIRAAVKFLDTDTICYRVEEPETLVELQRNEWDPIIEWAEKRYGVEISSSTSIMGPSIPAKTREVLVSHLASYNTWALQGIEFVAAQLKSMVLTLGLIDLRLTVEQAVLLSRLEEEYQIQKWGNIEWAHDYELQELRARTAAGTLFIHLCSESTTVKHKLLKE [ATPAF2] . Reported solubility change mitosis (log2): -0.295

Record MSTAQSLKSVDYEVFGRVQGVCFRMYTEDEARKIGVVGWVKNTSKGTVTGQVQGPEDKVNSMKSWLSKVGSPSSRIDRTNFSNEKTISKLEYSNFSIRY [ACYP2] . Reported solubility change mitosis (log2): -0.0326

Record MASSDIQVKELEKRASGQAFELILSPRSKESVPEFPLSPPKKKDLSLEEIQKKLEAAEERRKSHEAEVLKQLAEKREHEKEVLQKAIEENNNFSKMAEEKLTHKMEANKENREAQMAAKLERLREKDKHIEEVRKNKESKDPADETEAD [STMN1] . Reported solubility change mitosis (log2): 0.208

New cases:
Record MTDLVAVWDVALSDGVHKIEFEHGTTSGKRVVYVDGKEEIRKEWMFKLVGKETFYVGAAKTKATINIDAISGFAYEYTLEINGKSLKKYMEDRSKTTNTWVLHMDGENFRIVLEKDAMDVWCNGKKLETAGEFVDDGTETHFSIGNHDCYIKAVSSGKRKEGIIHTLIVDNREIPEIAS [FAIM] . Reported solubility change mitosis (log2): -0.25

Record MVRPVRHKKPVNYSQFDHSDSDDDFVSATVPLNKKSRTAPKELKQDKPKPNLNNLRKEEIPVQEKTPKKRLPEGTFSIPASAVPCTKMALDDKLYQRDLEVALALSVKELPTVTTNVQNSQDKSIEKHGSSKIETMNKSPHISNCSVASDYLDLDKITVEDDVGGVQGKRKAASKAAAQQRKILLEGSDGDSANDTEPDFAPGEDSEDDSDFCESEDNDEDFSMRKSKVKEIKKKEVKVKSPVEKKEKKSKSKCNALVTSVDSAPAAVKSESQSLPKKVSLSSDTTRKPLEIRSPSAESKKPKWVPPAASGGSRSSSSPLVVVSVKSPNQSLRLGLSRLARVKPLHPNATST [RAD51AP1] . Reported solubility change mitosis (log2): 0.203

Record MAAPVDLELKKAFTELQAKVIDTQQKVKLADIQIEQLNRTKKHAHLTDTEIMTLVDETNMYEGVGRMFILQSKEAIHSQLLEKQKIAEEKIKELEQKKSYLERSVKEAEDNIREMLMARRAQ [PFDN1] . Reported solubility change mitosis (log2): 0.291
